Where do these numbers come from? They come from patent US8748480B2.

target: Gβ1γ2 Lys57Ala (Rattus norvegicus, UniProt P54311, K57A); construct: made in house; host or cells: Sf9 insect cells (baculovirus); experiment: Phage ELISA, b-βγ mutant Lys57Ala; type: binding; settings: alanine-substituted Lys57, C-Terminal Interface; mean ± SD
Sequence (P54311 whole entry K57A): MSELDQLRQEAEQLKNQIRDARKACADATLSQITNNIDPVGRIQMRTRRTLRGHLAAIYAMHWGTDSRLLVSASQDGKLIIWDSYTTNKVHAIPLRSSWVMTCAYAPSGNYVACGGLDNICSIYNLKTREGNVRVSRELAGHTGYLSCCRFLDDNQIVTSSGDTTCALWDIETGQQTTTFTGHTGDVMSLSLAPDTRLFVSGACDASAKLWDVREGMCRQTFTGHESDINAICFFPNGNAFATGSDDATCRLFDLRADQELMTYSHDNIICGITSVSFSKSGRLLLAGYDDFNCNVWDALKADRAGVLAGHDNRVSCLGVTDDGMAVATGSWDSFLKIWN
Sequence (P63212 2-68 partner limits assumed): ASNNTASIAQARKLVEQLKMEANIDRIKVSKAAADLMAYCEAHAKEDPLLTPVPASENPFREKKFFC
For each entry below, report its % of Wild-Type Signal, Lys57 value.
Give the value, in units of %, as a plain number.

Problem: Please indicate % of Wild-Type Signal, Lys57 recorded for SCGHGLKVQSTIGACA [3C]
Result: 3.6

Problem: Please indicate % of Wild-Type Signal, Lys57 recorded for SIGKALFILGYPDYD [3.14]
Result: 18.6

Problem: Please indicate % of Wild-Type Signal, Lys57 recorded for SCEKRYGIEFCT [C4]
Result: −0.2

Problem: Please indicate % of Wild-Type Signal, Lys57 recorded for SCKRTKAQILLAPCT [C1]
Result: 0.1

Problem: Please indicate % of Wild-Type Signal, Lys57 recorded for SCEKRLGVRSCT [C5]
Result: 5.6

Problem: Please indicate % of Wild-Type Signal, Lys57 recorded for WCPPKAMTQLGIKAC [C14]
Result: 3.0

Problem: Please indicate % of Wild-Type Signal, Lys57 recorded for WCPPKLEQWYDGCA [C2]
Result: −1.2

Problem: Please indicate % of Wild-Type Signal, Lys57 recorded for LCSKAYLLLGQTC [2F]
Result: −4.5

* * *

For each entry below, report its % of Wild-Type Signal, Arg314 value.
molecular target: Gβ1γ2 Arg314Ala (Rattus norvegicus, UniProt P54311, R314A); construct: made in house; host or cells: Sf9 insect cells (baculovirus); assay: Phage ELISA, b-βγ mutant Arg314Ala; assay type: binding; settings: alanine-substituted Arg314, Indirect; mean ± SD
Sequence (P54311 whole entry R314A): as the sequence (P54311 whole entry K57A) above, with A57K, R314A counted along it
Sequence (P63212 2-68 partner limits assumed): as the sequence (P63212 2-68 partner limits assumed) above
Give the value, in units of %, as a plain number.

Problem: Please indicate % of Wild-Type Signal, Arg314 recorded for SCKRTKAQILLAPCT [C1]
Result: 2.8

Problem: Please indicate % of Wild-Type Signal, Arg314 recorded for SCEKRLGVRSCT [C5]
Result: 76.5

Problem: Please indicate % of Wild-Type Signal, Arg314 recorded for LCSKAYLLLGQTC [2F]
Result: 2.4

Problem: Please indicate % of Wild-Type Signal, Arg314 recorded for WCPPKAMTQLGIKAC [C14]
Result: 3.9

Problem: Please indicate % of Wild-Type Signal, Arg314 recorded for SIGKALFILGYPDYD [3.14]
Result: 50.2

Problem: Please indicate % of Wild-Type Signal, Arg314 recorded for SCEKRYGIEFCT [C4]
Result: 1.4

Problem: Please indicate % of Wild-Type Signal, Arg314 recorded for SCGHGLKVQSTIGACA [3C]
Result: 8.3

Problem: Please indicate % of Wild-Type Signal, Arg314 recorded for WCPPKLEQWYDGCA [C2]
Result: 1.3

* * *

target: Gβ1γ2 Trp99Ala (Rattus norvegicus, UniProt P54311, W99A); construct: made in house; host or cells: Sf9 insect cells (baculovirus); test: Phage ELISA, b-βγ mutant Trp99Ala; type: binding; conditions: alanine-substituted Trp99, C-Terminal Interface; mean ± SD
Sequence (P54311 whole entry W99A): as the sequence (P54311 whole entry K57A) above, with A57K, W99A counted along it
Sequence (P63212 2-68 partner limits assumed): as the sequence (P63212 2-68 partner limits assumed) above
parameter: % of Wild-Type Signal, Trp99
Express the reported value numerically, then name its unit.

Problem: Name the recorded % of Wild-Type Signal, Trp99 of SCEKRYGIEFCT [C4] , assay system Gβ1γ2 Trp99Ala (Rattus norvegicus, UniProt P54311, W99A).
Result: 67.0 ± 15.2%

Problem: Name the recorded % of Wild-Type Signal, Trp99 of SCEKRLGVRSCT [C5] , assay system Gβ1γ2 Trp99Ala (Rattus norvegicus, UniProt P54311, W99A).
Result: 39.0 ± 3.8%

Problem: Name the recorded % of Wild-Type Signal, Trp99 of LCSKAYLLLGQTC [2F] , assay system Gβ1γ2 Trp99Ala (Rattus norvegicus, UniProt P54311, W99A).
Result: 32.6 ± 26.3%

Problem: Name the recorded % of Wild-Type Signal, Trp99 of WCPPKAMTQLGIKAC [C14] , assay system Gβ1γ2 Trp99Ala (Rattus norvegicus, UniProt P54311, W99A).
Result: 10.1 ± 3.3%

Problem: Name the recorded % of Wild-Type Signal, Trp99 of WCPPKLEQWYDGCA [C2] , assay system Gβ1γ2 Trp99Ala (Rattus norvegicus, UniProt P54311, W99A).
Result: −1.0 ± 5.1%

Problem: Name the recorded % of Wild-Type Signal, Trp99 of SCKRTKAQILLAPCT [C1] , assay system Gβ1γ2 Trp99Ala (Rattus norvegicus, UniProt P54311, W99A).
Result: 1.2 ± 2.7%

Problem: Name the recorded % of Wild-Type Signal, Trp99 of SCGHGLKVQSTIGACA [3C] , assay system Gβ1γ2 Trp99Ala (Rattus norvegicus, UniProt P54311, W99A).
Result: −0.5 ± 5.9%

Problem: Name the recorded % of Wild-Type Signal, Trp99 of SIGKALFILGYPDYD [3.14] , assay system Gβ1γ2 Trp99Ala (Rattus norvegicus, UniProt P54311, W99A).
Result: 66.0 ± 7.7%

* * *

target: Gβ1γ2 Asp186Ala (Rattus norvegicus, UniProt P54311, D186A); construct: made in house; host or cells: Sf9 insect cells (baculovirus); assay: Phage ELISA, b-βγ mutant Asp186Ala; type: binding; conditions: alanine-substituted Asp186, N-Terminal Interface; mean ± SD
Sequence (P54311 whole entry D186A): as the sequence (P54311 whole entry K57A) above, with A57K, D186A counted along it
Sequence (P63212 2-68 partner limits assumed): as the sequence (P63212 2-68 partner limits assumed) above
# strict inequality: % of Wild-Type Signal, Asp186 < 4% yields true (1), everything else yields false (0)

Problem: Is 4% strictly greater than the sequence's reported % of Wild-Type Signal, Asp186? sequence: SCEKRYGIEFCT [C4]
Result: false (0)

Problem: Is 4% strictly greater than the sequence's reported % of Wild-Type Signal, Asp186? sequence: SIGKALFILGYPDYD [3.14]
Result: false (0)

Problem: Is 4% strictly greater than the sequence's reported % of Wild-Type Signal, Asp186? sequence: SCGHGLKVQSTIGACA [3C]
Result: false (0)

Problem: Is 4% strictly greater than the sequence's reported % of Wild-Type Signal, Asp186? sequence: LCSKAYLLLGQTC [2F]
Result: true (1)

Problem: Is 4% strictly greater than the sequence's reported % of Wild-Type Signal, Asp186? sequence: SCEKRLGVRSCT [C5]
Result: false (0)

Problem: Is 4% strictly greater than the sequence's reported % of Wild-Type Signal, Asp186? sequence: WCPPKLEQWYDGCA [C2]
Result: false (0)

Problem: Is 4% strictly greater than the sequence's reported % of Wild-Type Signal, Asp186? sequence: SCKRTKAQILLAPCT [C1]
Result: true (1)

Problem: Is 4% strictly greater than the sequence's reported % of Wild-Type Signal, Asp186? sequence: WCPPKAMTQLGIKAC [C14]
Result: true (1)

* * *

target: Gβ1γ2 Asn230Ala (Rattus norvegicus, UniProt P54311, N230A); construct: made in house; host or cells: Sf9 insect cells (baculovirus); assay: Phage ELISA, b-βγ mutant Asn230Ala; assay type: binding; conditions: alanine-substituted Asn230, N-Terminal Interface; mean ± SD
Sequence (P54311 whole entry N230A): as the sequence (P54311 whole entry K57A) above, with A57K, N230A counted along it
Sequence (P63212 2-68 partner limits assumed): as the sequence (P63212 2-68 partner limits assumed) above
parameter: % of Wild-Type Signal, Asn230 (%)
Give the value, in units of %, as a plain number.

Problem: Please indicate % of Wild-Type Signal, Asn230 recorded for SCKRTKAQILLAPCT [C1]
Result: 19.8

Problem: Please indicate % of Wild-Type Signal, Asn230 recorded for SCGHGLKVQSTIGACA [3C]
Result: 4.1

Problem: Please indicate % of Wild-Type Signal, Asn230 recorded for WCPPKLEQWYDGCA [C2]
Result: 0.0

Problem: Please indicate % of Wild-Type Signal, Asn230 recorded for SCEKRLGVRSCT [C5]
Result: 33.5

Problem: Please indicate % of Wild-Type Signal, Asn230 recorded for WCPPKAMTQLGIKAC [C14]
Result: 60.0

* * *

target: Gβ1γ2 Met188Ala (Rattus norvegicus, UniProt P54311, M188A); construct: made in house; host or cells: Sf9 insect cells (baculovirus); assay: Phage ELISA, b-βγ mutant Met188Ala; type: binding; conditions: alanine-substituted Met188, Shared; mean ± SD
Sequence (P54311 whole entry M188A): as the sequence (P54311 whole entry K57A) above, with A57K, M188A counted along it
Sequence (P63212 2-68 partner limits assumed): as the sequence (P63212 2-68 partner limits assumed) above
For each entry below, report its % of Wild-Type Signal, Met188 value.
Give the value, in units of %, as a plain number.

Problem: Please indicate % of Wild-Type Signal, Met188 recorded for SIGKALFILGYPDYD [3.14]
Result: 2.5

Problem: Please indicate % of Wild-Type Signal, Met188 recorded for SCGHGLKVQSTIGACA [3C]
Result: −5.7

Problem: Please indicate % of Wild-Type Signal, Met188 recorded for LCSKAYLLLGQTC [2F]
Result: 8.5

Problem: Please indicate % of Wild-Type Signal, Met188 recorded for WCPPKAMTQLGIKAC [C14]
Result: 9.9

Problem: Please indicate % of Wild-Type Signal, Met188 recorded for SCEKRLGVRSCT [C5]
Result: 97.2

Problem: Please indicate % of Wild-Type Signal, Met188 recorded for SCEKRYGIEFCT [C4]
Result: 127.5

Problem: Please indicate % of Wild-Type Signal, Met188 recorded for WCPPKLEQWYDGCA [C2]
Result: −0.7
